Values compiled from PubChem BioAssay AID624466.

target: Trace amine-associated receptor 1 (Homo sapiens) (UniProt Q96RJ0); assay: blockers of beta-PEA-driven TAAR1 calcium signal – Fluo-8 calcium fluorescence, CHO RD-HGA16 cells, primary screen (AID 624466); details: CHO RD-HGA16 TAAR1, Fluo-8 calcium fluorescence, antagonist; at 3 µM; stronger effect = higher value
Sequence (Q96RJ0 whole entry, looked up): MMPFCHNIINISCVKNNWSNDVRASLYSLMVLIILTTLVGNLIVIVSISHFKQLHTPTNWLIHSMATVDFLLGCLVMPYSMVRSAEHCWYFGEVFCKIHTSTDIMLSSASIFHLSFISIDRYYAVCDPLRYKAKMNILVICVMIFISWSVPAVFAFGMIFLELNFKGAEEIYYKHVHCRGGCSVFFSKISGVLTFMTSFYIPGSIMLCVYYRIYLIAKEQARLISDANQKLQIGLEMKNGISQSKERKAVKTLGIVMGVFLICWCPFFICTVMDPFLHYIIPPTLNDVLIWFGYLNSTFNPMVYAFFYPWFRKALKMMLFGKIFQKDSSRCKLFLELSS
In all, about 360,000 compounds went through this assay and about 5,400 (1.5%) were called active. The list comes from a sample in which actives are over-represented; it also holds close analogues and randomly drawn compounds. Where a SMILES comes first, the peptide text is derived from it. The star is where a group is joined. Bz = O=C(c1ccccc1)*
Classify as follows. Reported inhibition greater than or equal to 20%: Criterion met. Reported inhibition below: Criterion not met.

compound	class_name
COC(=O)C(C(=O)OC)c1ccccc1NS(=O)(=O)c1cccc2ccccc12	Criterion not met
FC(F)Oc1ccc(NC(=S)NCc2ccco2)cc1Cl	Criterion met
CC(Oc1ccc2ccccc2c1)C(=O)NNC(=S)NC(=O)c1ccco1 (stereo unspecified)	Criterion met
NC(=O)c1ccsc1NC(=O)COC(=O)COc1ccc(C=O)cc1	Criterion met
CCOc1cc(NC(=S)NCc2ccco2)c(OCC)cc1NC(=O)c1ccco1	Criterion not met
O=C(Nc1ccc2ccccc2c1)/C(=C\c1ccc2c(c1)OCO2)NC(=O)c1ccco1	Criterion not met
Cc1cc(Cl)ccc1OCCCC(=O)NCc1ccccn1	Criterion not met
Cc1cccc(C(=O)OCC(=O)Nc2sccc2C(N)=O)c1C	Criterion not met
COc1ccc(OC)c2[nH]c(=O)c(CCNC(=O)C(=O)c3c[nH]c4ccccc34)cc12	Criterion met
O=C(CCc1ccccc1)Nc1cccc(-c2nnc(-c3ccco3)o2)c1	Criterion met
COC(=O)C1=C(C)N(Cc2cccc(C(F)(F)F)c2)C(=NCc2ccccc2)NC1c1ccc(Cl)cc1 (stereo unspecified)	Criterion met
CCS(=O)(=O)c1ccc(-c2cccc(NC(=O)c3ccc(Br)o3)c2)nn1	Criterion not met
O=C(NCC1CCCO1)c1cc2c([nH]c3ccccc32)c(-c2ccc(F)cc2)n1 (stereo unspecified)	Criterion met
Cn1c2ccccc2c(=O)c2c(=O)n(Cc3ccco3)c(COc3ccccc3)nc21	Criterion met
Cc1cc(Cl)ccc1OCCCC(=O)NCc1ccncc1	Criterion not met
O=C(CSc1nnc(-c2ccco2)o1)NCC(=O)c1ccccc1	Criterion not met
CN1CCN(C(=O)c2ccc(NC(=O)c3ccc(Br)o3)cc2)CC1	Criterion not met
O=C(NCCCc1ccccc1)C(=O)c1c[nH]c2ccccc12	Criterion not met
CCc1nc2oc3ccccc3c(=O)c2c(=O)n1Cc1ccc(OC)cc1	Criterion not met
Cc1cc(Cl)ccc1OCCCC(=O)Nc1cccc(-n2cnnn2)c1	Criterion met
O=C(NC(Cc1ccccc1)C(=O)N1CCCC1C(=O)O)c1ccccc1 (stereo not drawn) (Bz-Phe-Pro-OH; configuration not given here)	Criterion not met
